Assay: recombinant barcode read abundance after kanamycin selection (control-corrected) (log10(CPM+1)); higher = more efficient recombination; sequences stand for … in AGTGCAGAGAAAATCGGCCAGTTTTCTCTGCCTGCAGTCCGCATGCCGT…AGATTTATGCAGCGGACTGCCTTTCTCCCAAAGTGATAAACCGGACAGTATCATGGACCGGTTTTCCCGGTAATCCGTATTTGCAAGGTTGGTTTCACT; site = the 11-nt target
Assign true to entries whose recombinant barcode read abundance (log10) meets or exceeds 0.8; assign false to the rest.

{"Sequence record": "GACGGATCTTGGGTTCTAACCTGTTGCCT (site GACGGATCTAA)", "Assigned label": "true"}
{"Sequence record": "GGCACGGCTTGGGTTCTAACCTGTTGCCT (site GGCACAGCTAG)", "Assigned label": "false"}
{"Sequence record": "TCCGAGGCTTGGGTTCTAACCTGTTGCTG (site TCCGAGGCTCA)", "Assigned label": "false"}
{"Sequence record": "CTAATTACTTGGGTTCTAACCTGTTGCCT (site CTAATTACTAG)", "Assigned label": "true"}
{"Sequence record": "ATCAGTACTTGGGTTCTAACCTGTTGCCT (site CTGAGTACTAG)", "Assigned label": "false"}

----------
Test: recombinant UMI read abundance after kanamycin selection (control-corrected) (log10(CPM+1)); higher = more efficient recombination; extreme values may be limits of the assay; sequences stand for … in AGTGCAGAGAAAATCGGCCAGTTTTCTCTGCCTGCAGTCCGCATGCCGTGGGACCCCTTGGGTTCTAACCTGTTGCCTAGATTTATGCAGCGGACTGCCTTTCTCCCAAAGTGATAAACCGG…AGGTTGGTTTCACT; site = the 11-nt donor

{"Sequence record": "CGCCGTACATGGACCGGTTTTCCCGGTAATCCGTATTTGCT (site AGCCGTACTAG)", "recombinant UMI read abundance (log10)": 0.192}
{"Sequence record": "CCCCACACATGGACCGGTTTTCCCGGTAATCCGTATTTGTA (site CCCCACACTTG)", "recombinant UMI read abundance (log10)": 0.586}
{"Sequence record": "GTTAGAACATGGACCGGTTTTCCCGGTAATCCGTATTTGGC (site GTTATAACTGC)", "recombinant UMI read abundance (log10)": 1.54}
{"Sequence record": "CAAGAGCCATGGACCGGTTTTCCCGGTAATCCGTATTTGTG (site CAAGCGCCTCA)", "recombinant UMI read abundance (log10)": 0.0351}
{"Sequence record": "CACAAACCATGGACCGGTTTTCCCGGTAATCCGTATTTGGT (site CACAAACCTAC)", "recombinant UMI read abundance (log10)": 0}
{"Sequence record": "CGATCCACATGGACCGGTTTTCCCGGTAATCCGTATTTGTT (site CGATCAACTAA)", "recombinant UMI read abundance (log10)": 0.00541}
{"Sequence record": "GGGGCATCATGGACCGGTTTTCCCGGTAATCCGTATTTGCA (site GGGGCAGCTTG)", "recombinant UMI read abundance (log10)": 0}
{"Sequence record": "AACTTGGCATGGACCGGTTTTCCCGGTAATCCGTATTTGGA (site CACTTGGCTTC)", "recombinant UMI read abundance (log10)": 0.467}
{"Sequence record": "TAATTGGCATGGACCGGTTTTCCCGGTAATCCGTATTTGTG (site TATTTGGCTCA)", "recombinant UMI read abundance (log10)": 0.00466}

----------
Test: recombinant UMI read abundance after kanamycin selection (control-corrected) (log10(CPM+1)); higher = more efficient recombination; extreme values may be limits of the assay; sequences stand for … in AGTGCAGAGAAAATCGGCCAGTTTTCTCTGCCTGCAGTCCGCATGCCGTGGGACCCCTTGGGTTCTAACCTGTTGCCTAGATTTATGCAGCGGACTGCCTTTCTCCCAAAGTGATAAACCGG…AGGTTGGTTTCACT; site = the 11-nt donor
We begin with a simple list: items and their reported recombinant UMI read abundance (log10).

{"Sequence record": "AGGATGACATGGACCGGTTTTCCCGGTAATCCGTATTTGCA (site AGGAGGACTTG)", "recombinant UMI read abundance (log10)": 1.19}
{"Sequence record": "AGTGTAACATGGACCGGTTTTCCCGGTAATCCGTATTTGCT (site ACTGTAACTAG)", "recombinant UMI read abundance (log10)": 1.47}
{"Sequence record": "CTGTCGCCATGGACCGGTTTTCCCGGTAATCCGTATTTGCA (site CTGTCGCCTTG)", "recombinant UMI read abundance (log10)": 0}
{"Sequence record": "GTCCATGCATGGACCGGTTTTCCCGGTAATCCGTATTTGGT (site GTCCATGCTAC)", "recombinant UMI read abundance (log10)": 0.891}
{"Sequence record": "CACTCCTCATGGACCGGTTTTCCCGGTAATCCGTATTTGCG (site CACTCCTCTTG)", "recombinant UMI read abundance (log10)": 2.29}
{"Sequence record": "AACCGTGCATGGACCGGTTTTCCCGGTAATCCGTATTTGAT (site AACCGTTCTAT)", "recombinant UMI read abundance (log10)": 0}
{"Sequence record": "CAAGCGGCATGGACCGGTTTTCCCGGTAATCCGTATTTGCT (site CAAGCCGCTAG)", "recombinant UMI read abundance (log10)": 0}
{"Sequence record": "CGTTTGGCATGGACCGGTTTTCCCGGTAATCCGTATTTGCT (site AGTTTGGCTAG)", "recombinant UMI read abundance (log10)": 0}
{"Sequence record": "CACGGCACATGGACCGGTTTTCCCGGTAATCCGTATTTGTT (site CACGGCACTAA)", "recombinant UMI read abundance (log10)": 1.6}
{"Sequence record": "TCCTTGACATGGACCGGTTTTCCCGGTAATCCGTATTTGCT (site TACTTGACTAG)", "recombinant UMI read abundance (log10)": 0.397}
{"Sequence record": "GAGCTCACATGGACCGGTTTTCCCGGTAATCCGTATTTGGT (site GAGCTCACTAG)", "recombinant UMI read abundance (log10)": 1.37}
{"Sequence record": "TTGAATACATGGACCGGTTTTCCCGGTAATCCGTATTTGCA (site TCGAATACTTG)", "recombinant UMI read abundance (log10)": 0}
{"Sequence record": "GTTACGTCATGGACCGGTTTTCCCGGTAATCCGTATTTGTT (site GCTACGTCTAA)", "recombinant UMI read abundance (log10)": 0.00335}
{"Sequence record": "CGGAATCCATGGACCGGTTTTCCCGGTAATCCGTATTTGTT (site CGGAATTCTAA)", "recombinant UMI read abundance (log10)": 0}
{"Sequence record": "TGATAGACATGGACCGGTTTTCCCGGTAATCCGTATTTGCC (site TGATAGACTGG)", "recombinant UMI read abundance (log10)": 2.54}
{"Sequence record": "CACTCCTCATGGACCGGTTTTCCCGGTAATCCGTATTTGGC (site CACTCCTCTGC)", "recombinant UMI read abundance (log10)": 2.75}
{"Sequence record": "GGAATGCCATGGACCGGTTTTCCCGGTAATCCGTATTTGCA (site GGAATGCCTTG)", "recombinant UMI read abundance (log10)": 0}
{"Sequence record": "ACATCTACATGGACCGGTTTTCCCGGTAATCCGTATTTGCG (site ACATCTACTCT)", "recombinant UMI read abundance (log10)": 0.353}

----------
Assay: recombinant barcode read abundance after kanamycin selection (control-corrected) (log10(CPM+1)); higher = more efficient recombination; sequences stand for … in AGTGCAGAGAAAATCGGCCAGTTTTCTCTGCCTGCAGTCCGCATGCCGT…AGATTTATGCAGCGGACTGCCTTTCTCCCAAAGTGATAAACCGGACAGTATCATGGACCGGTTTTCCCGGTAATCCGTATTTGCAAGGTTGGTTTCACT; site = the 11-nt target
Tag: TRUE if measured recombinant barcode read abundance (log10) is not below 1, FALSE if it is.

{"Sequence record": "ACTGCTCCTTGGGTTCTAACCTGTTGCCT (site CTCTGAGCTCT)", "Assigned label": "FALSE"}
{"Sequence record": "AGTCTACCTTGGGTTCTAACCTGTTGCCT (site AGTCTACCTAG)", "Assigned label": "TRUE"}
{"Sequence record": "CGGAAGCCTTGGGTTCTAACCTGTTGCCT (site CGGAAGCCTAG)", "Assigned label": "TRUE"}
{"Sequence record": "CCGCGCACTTGGGTTCTAACCTGTTGCCT (site CCGCGCACTAG)", "Assigned label": "FALSE"}
{"Sequence record": "TAGTAAGCTTGGGTTCTAACCTGTTGCTG (site TAGTACGCTCT)", "Assigned label": "FALSE"}
{"Sequence record": "TAGTCCTCTTGGGTTCTAACCTGTTGCTG (site TAGTCCTCTAA)", "Assigned label": "FALSE"}
{"Sequence record": "AGACCCTCTTGGGTTCTAACCTGTTGCCT (site GGACCCTCTAG)", "Assigned label": "FALSE"}
{"Sequence record": "TACAAGGCTTGGGTTCTAACCTGTTGCGG (site TACAAGGCTCC)", "Assigned label": "TRUE"}
{"Sequence record": "TTGGCCACTTGGGTTCTAACCTGTTGCCT (site TTGGCCACTAG)", "Assigned label": "TRUE"}
{"Sequence record": "GCCGGCTCTTGGGTTCTAACCTGTTGCCT (site GCCGGCTCTAG)", "Assigned label": "TRUE"}
